Target: T1, cynomolgus monkey SIRPγ on CHO cells (cynomolgus monkey, UniProt Q9P1W8 29-386 (human entry))
T1 construct: also called Cyno SIRPγ CHO
T1 chain: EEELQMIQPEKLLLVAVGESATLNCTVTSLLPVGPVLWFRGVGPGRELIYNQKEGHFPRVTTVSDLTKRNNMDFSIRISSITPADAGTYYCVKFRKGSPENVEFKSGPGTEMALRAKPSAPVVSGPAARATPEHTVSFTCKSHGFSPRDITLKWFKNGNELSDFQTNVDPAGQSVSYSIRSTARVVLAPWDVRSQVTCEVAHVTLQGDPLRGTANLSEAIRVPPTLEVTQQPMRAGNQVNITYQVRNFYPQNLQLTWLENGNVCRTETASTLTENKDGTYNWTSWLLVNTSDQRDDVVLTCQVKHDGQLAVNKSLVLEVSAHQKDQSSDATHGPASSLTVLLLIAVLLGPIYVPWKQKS
Test: flow cytometry, myc-scFv PPE
Entry flag: class 1 if MFI fold change over parental CHO reaches 20 fold; class 0 if it does not.

Antibody 19 (scFv, V domains shown, scFv in crude PPE, V5/myc-tagged) VH: QVQLVQSGAEVKKPGASVKVSCKASGYTFTAYYMHWVRQAPGQGLEWMGIINPSGGSTSYAQKFQGRVTMTRDTSTSTVYMELSSLRSEDTAVYYCARDSGWYAPGYYYGMDVWGQGTTVTVSS VL: DIQMTQSPSSLSASVGDRVTITCRASESISHWLAWYQQKPGKAPKLLIYGASTLQSGVPSRFSGSGSGTDFTLTISSLQPEDFATYYCQQSYTPPLTFGGGTKVEIK | class 1
Antibody 13 (scFv, V domains shown, scFv in crude PPE, V5/myc-tagged) VH: EVQLLESGGGLVQPGGSLRLSCAASGFTFSNSDMNWVRQAPGKGLEWVSYISSSGNTIYYADSVKGRFTISRDNSKNTLYLQMNSLRAEDTAVYYCARSNWNYPLDYYYMDVWGKGTTVTVSS VL: DIVMTQSPLSLPVTPGEPASISCRSSQSLLHSNGYNYLDWYLQKPGQSPQLLIYAASSLQSGVPDRFSGSGSGTDFTLKISRVEAEDVGVYYCMQGTHWPPTFGQGTKVEIK | class 0
Antibody 52 (scFv, V domains shown, scFv in crude PPE, V5/myc-tagged) VH: QVQLVQSGAEVKKPGASVKVSCKASGYTFTSYDINWVRQAPGQGLEWMGWISGYNGNTNYAQKFQGRVTMTRDTSTSTVYMELSSLRSEDTAVYYCARSFDWLLLLDYWGQGTLVTVSS VL: DIQMTQSPSSLSASVGDRVTITCRASQSISSWLAWYQQKPGKAPKLLIYDATTLESGVPSRFSGSGSGTDFTLTISSLQPEDFATYYCQQYDSYPWTFGQGTKLEIK | class 0
Antibody 31 (scFv, V domains shown, scFv in crude PPE, V5/myc-tagged) VH: QVQLVQSGAEVKKPGASVKVSCKASGGTFRSYAISWVRQAPGQGLEWMGWMNPNSGNTGYAQKFQGRVTMTRDTSTSTVYMELSSLRSEDTAVYYCARESVLKGGMDVWGQGTTVTVSS VL: DIVMTQSPDSLAVSLGERATINCRSSQSLFHSSTNANNLAWYQQKPGQPPKLLIYWASTRESGVPDRFSGSGSGTDFTLTISSLQAEDVAVYYCQQYYITPLTFGQGTRLEIK | class 1
Antibody 39 (scFv, V domains shown, scFv in crude PPE, V5/myc-tagged) VH: QVQLVQSGAEVKKPGASVKVSCKASGGTFSNYGFSWVRQAPGQGLEWMGWMSPSSGNTGYAQKFQGRVTMTRDTSTSTVYMELSSLRSEDTAVYYCARERSGSYFDYWGQGTLVTVSS VL: EIVMTQSPATLSVSPGERATLSCRASQSVSSYLAWYQQKPGQAPRLLIYGTSTRATGIPARFSGSGSGTEFTLTISSLQSEDFAVYYCQQYGSLPFTFGQGTRLEIK | class 1

For this binder, is measured MFI fold change over parental CHO 20 fold or higher? Antibody 10 (scFv, V domains shown, scFv in crude PPE, V5/myc-tagged) VH: QVQLVQSGAEVKKPGASVKVSCKASGGTFSNYDISWVRQAPGQGLEWMGMIDPSGGSTSYAQKFQGRVTMTRDTSTSTVYMELSSLRSEDTAVYYCARPYSSGWYYFDYWGQGTLVTVSS VL: DIQMTQSPSSLSASVGDRVTITCQASQDIHNYLNWYQQKPGKAPKLLIYDASNLETGVPSRFSGSGSGTDFTLTISSLQPEDFATYYCQQSYNTPPTFGQGTRLEIK
class 1

For this binder, is measured MFI fold change over parental CHO 20 fold or higher? Antibody 35 (scFv, V domains shown, scFv in crude PPE, V5/myc-tagged) VH: QVQLVQSGAEVKKPGASVKVSCKASGYTFTSYYIHWVRQAPGQGLEWMGTINPSGGSTSYAQKFQGRVTMTRDTSTSTVYMELSSLRSEDTAVYYCARETSRWLRDYYYGMDVWGQGTTVTVSS VL: DIVMTQSPLSLPVTPGEPASISCRSSQSLLHSNGYNYLDWYLQKPGQSPQLLIYDASSLESGVPDRFSGSGSGTDFTLKISRVEAEDVGVYYCMQGTHWPLTFGGGTKVEIK
class 0

For this binder, is measured MFI fold change over parental CHO 20 fold or higher? Antibody 15 (scFv, V domains shown, scFv in crude PPE, V5/myc-tagged) VH: QVQLVQSGAEVKKPGASVKVSCKASGYSFTSYGISWVRQAPGQGLEWMGWISPYNGNTNYAQKLQGRVTMTRDTSTSTVYMELSSLRSEDTAVYYCAREAYGDYGDYFDYWGQGTLVTVSS VL: DIQMTQSPSSLSASVGDRVTITCRASQGVGDRSAWYQQKPGKAPKLLIYDASNLETGVPSRFSGSGSGTDFTLTISSLQPEDFATYYCQQADTFPYTFGQGTKLEIK
class 0

For this binder, is measured MFI fold change over parental CHO 20 fold or higher? Antibody 33 (scFv, V domains shown, scFv in crude PPE, V5/myc-tagged) VH: QVQLVQSGAEVKKPGASVKVSCKASGYTFTSYYMHWVRQAPGQGLEWMGWMNPNSDNTGYAQKFQGRVTMTRDTSTSTVYMELSSLRSEDTAVYYCARVGVGYGYYYYGMDVWGQGTTVTVSS VL: DIQMTQSPSSLSASVGDRVTITCRAGQSIGDYLNWYQQKPGKAPKLLIYAASSLQSGVPSRFSGSGSGTDFTLTISSLQPEDFATYYCQQSYSTPWTFGQGTKVEIK
class 0

For this binder, is measured MFI fold change over parental CHO 20 fold or higher? Antibody 24 (scFv, V domains shown, scFv in crude PPE, V5/myc-tagged) VH: QVQLVQSGAEVKKPGASVKVSCKASGYTFTGYYMHWVRQAPGQGLEWMGIINPSGGSTNYAQKFQGRVTMTRDTSTSTVYMELSSLRSEDTAVYYCARGPIGYGMDVWGQGTLVTVSS VL: DIQMTQSPSSLSASVGDRVTITCRASQGIGNDLGWYQQKPGKAPKLLIYAASNLETGVPSRFSGSGSGTDFTLTISSLQPEDFATYYCLQHHSYPFTFGQGTKLEIK
class 0

The origin of these recorded values is patent US20240400677A1.
